# assay_target: LK35.2-hPD-L1 cells / PE-labeled PD-1-Ig (Homo sapiens)
# Construct: expressed in transfected cells; host or cells: LK35.2 mouse B cell line
# assay_overview: LK35.2-hPD-L1 cell binding high-content screening assay
# Type: cell-based
# study_conditions: cell binding assay, cell line not given; cluster symbol; read-out: CBA IC50 cluster
Positions of bridges follow the written chain, without caps; N, C: chain ends. Non-standard residues stand in square brackets, D forms with d. Residues, ends and D or L forms follow the SMILES beside them. ξ: configuration not given here. Bta = N[C@@H](Cc1csc2ccccc12)C(=O)O; Hyp = O=C(O)[C@@H]1C[C@@H](O)CN1; NMeNle = CCCC[C@H](NC)C(=O)O; NMeA = CN[C@@H](C)C(=O)O; Dap = NC[C@H](N)C(=O)O; ξC = NC(CS)C(=O)O
assay_metric: IC50

CCCC[C@H]1C(=O)N(C)[C@@H](CCCC)C(=O)N[C@@H](CCCNC(=N)N)C(=O)NC(C(=O)NCC(N)=O)CSCC(=O)N[C@@H](Cc2ccc(O)cc2)C(=O)N(C)[C@@H](C)C(=O)N[C@@H](CC(N)=O)C(=O)N2CCC[C@H]2C(=O)N[C@@H](CO)C(=O)N[C@@H](CC(C)C)C(=O)N2C[C@H](O)C[C@H]2C(=O)N[C@@H](Cc2c[nH]c3ccccc23)C(=O)N[C@@H](CO)C(=O)N[C@@H](Cc2csc3ccccc23)C(=O)N1C (some centres unmarked) [Example 9071] ({CH2CO}-Y[NMeA]NPSL[Hyp]WS[Bta][NMeNle][NMeNle]R[ξC]G-NH2; thioether N-14)	0.158 to 4.71 nM

Note down IC50 recorded for CCCC[C@H]1C(=O)N(C)[C@@H](CCCC)C(=O)N[C@@H](CN)C(=O)N[C@H](C(=O)NCC(N)=O)CSCC(=O)N[C@@H](Cc2ccc(O)cc2)C(=O)N(C)[C@@H](C)C(=O)N[C@@H](CC(N)=O)C(=O)N2CCC[C@H]2C(=O)N[C@@H](CN)C(=O)N[C@@H](CC(C)C)C(=O)N2C[C@H](O)C[C@H]2C(=O)N[C@@H](Cc2c[nH]c3ccccc23)C(=O)N[C@@H](CO)C(=O)N[C@@H](Cc2c[nH]c3ccccc23)C(=O)N1C [Example 5063] ({CH2CO}-Y[NMeA]NP[Dap]L[Hyp]WSW[NMeNle][NMeNle][Dap]CG-NH2; thioether N-14)
0.158 to 4.71 nM

====

# assay_target: LK35.2-hPD-L1 cells / PE-labeled PD-1-Ig (Homo sapiens, UniProt Q9NZQ7)
# Construct: expressed in transfected cells; host or cells: LK35.2 mouse B cell line
# Sequence (Q9NZQ7 19-290): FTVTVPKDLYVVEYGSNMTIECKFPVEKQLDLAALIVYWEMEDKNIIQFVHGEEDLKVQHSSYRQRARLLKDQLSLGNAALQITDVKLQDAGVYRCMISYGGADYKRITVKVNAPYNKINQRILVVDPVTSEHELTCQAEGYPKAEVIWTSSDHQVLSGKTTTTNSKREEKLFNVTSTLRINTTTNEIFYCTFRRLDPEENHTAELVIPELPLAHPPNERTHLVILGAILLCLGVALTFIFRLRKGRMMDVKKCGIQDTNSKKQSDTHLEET
# assay_overview: LK35.2-hPD-L1 cell binding high-content screening assay
# Format: cell-based
# study_conditions: cell binding assay, cell line not given; cluster symbol; read-out: CBA IC50 cluster
Positions of bridges follow the written chain, without caps; N, C: chain ends. Non-standard residues stand in square brackets, D forms with d. Residues, ends and D or L forms follow the SMILES beside them. Phe(4-Cl) = N[C@@H](Cc1ccc(Cl)cc1)C(=O)O; NMeF = CN[C@@H](Cc1ccccc1)C(=O)O; NMeNle = CCCC[C@H](NC)C(=O)O; Sar = CNCC(=O)O
assay_metric: IC50

Note down IC50 recorded for CCCC[C@H]1C(=O)N(C)CC(=O)N[C@@H](CC(=O)O)C(=O)N[C@@H](C(C)C)C(=O)N(C)[C@@H](Cc2ccccc2)C(=O)N[C@@H](Cc2ccc(O)cc2)C(=O)N(C)CC(=O)N[C@@H](Cc2ccc(Cl)cc2)C(=O)N[C@@H](Cc2ccc(O)cc2)C(=O)N[C@@H](CC(C)C)C(=O)N[C@H](C(=O)NCC(N)=O)CSCC(=O)N[C@@H](Cc2ccccc2)C(=O)N(C)[C@@H](Cc2ccccc2)C(=O)N1C [Example 3546] ({CH2CO}-F[NMeF][NMeNle][Sar]DV[NMeF]Y[Sar][Phe(4-Cl)]YLCG-NH2; thioether N-13)
> 0.0743 µM
